Test system: mGlu7
Experiment: Agonist activity on mGlu7 in transfected HEK293 cells, intracellular calcium release (Fluo4-AM)
Format: cell-based
Settings: ratio of mGlu7 EC50 to mGlu4 EC50
Description: The EC50's are compared to those of L-AP4 (L-2-amino-4-phosphonobutyric acid) used as a reference. Metabotropic glutamate receptors were transiently transfected in HEK293 cells by electroporation as described elsewhere (Brabet I. et al., 1998) and plated in 96-well microplates. […] Receptor activity was then determined by measurement of the IP production or Ca release as already described (Goudet C. et al., PNAS 2004). […]
mGlu7/4 EC50 ratio listing for selected compounds.

Before answering, review these 5 worked examples.
N[C@@H](CCP(=O)(O)O)C(=O)O [L-AP4, L-2-amino-4-phosphonobutyric acid, reference compound] : >1000
N[C@@H](CCP(=O)(O)C(O)c1ccc(OCC(=O)O)c(C(F)(F)F)c1)C(=O)O (stereo in doubt) : 39
COc1cc(C(O)P(=O)(O)CC[C@H](N)C(=O)O)cc(I)c1OCC(=O)O (stereo partly shown) : 44
N[C@@H](CCP(=O)(O)C(O)c1ccc(SCC(=O)O)c([N+](=O)[O-])c1)C(=O)O (stereo in doubt) : 1.4
N[C@@H](CCP(=O)(O)C(O)c1ccc(OCC(=O)O)c(O)c1)C(=O)O (stereo in doubt) : 14

Reported mGlu7/4 EC50 ratio, compound COc1cc(C(O)P(=O)(O)CC[C@H](N)C(=O)O)ccc1OCC(=O)O (stereo partly shown) : ____
115

Query COc1cc(C(O)P(=O)(O)CC[C@H](N)C(=O)O)cc(Cl)c1OCC(=O)O (stereo partly shown) next
88

---

target: mGlu6 (Homo sapiens (Human)); assay: Agonist activity on mGlu6 in transfected HEK293 cells, intracellular calcium release (Fluo4-AM); type: cell-based; conditions: transfected cells, calcium release; read-out: mGlu6 EC50 μM (n)
Sequence (O15303 25-877): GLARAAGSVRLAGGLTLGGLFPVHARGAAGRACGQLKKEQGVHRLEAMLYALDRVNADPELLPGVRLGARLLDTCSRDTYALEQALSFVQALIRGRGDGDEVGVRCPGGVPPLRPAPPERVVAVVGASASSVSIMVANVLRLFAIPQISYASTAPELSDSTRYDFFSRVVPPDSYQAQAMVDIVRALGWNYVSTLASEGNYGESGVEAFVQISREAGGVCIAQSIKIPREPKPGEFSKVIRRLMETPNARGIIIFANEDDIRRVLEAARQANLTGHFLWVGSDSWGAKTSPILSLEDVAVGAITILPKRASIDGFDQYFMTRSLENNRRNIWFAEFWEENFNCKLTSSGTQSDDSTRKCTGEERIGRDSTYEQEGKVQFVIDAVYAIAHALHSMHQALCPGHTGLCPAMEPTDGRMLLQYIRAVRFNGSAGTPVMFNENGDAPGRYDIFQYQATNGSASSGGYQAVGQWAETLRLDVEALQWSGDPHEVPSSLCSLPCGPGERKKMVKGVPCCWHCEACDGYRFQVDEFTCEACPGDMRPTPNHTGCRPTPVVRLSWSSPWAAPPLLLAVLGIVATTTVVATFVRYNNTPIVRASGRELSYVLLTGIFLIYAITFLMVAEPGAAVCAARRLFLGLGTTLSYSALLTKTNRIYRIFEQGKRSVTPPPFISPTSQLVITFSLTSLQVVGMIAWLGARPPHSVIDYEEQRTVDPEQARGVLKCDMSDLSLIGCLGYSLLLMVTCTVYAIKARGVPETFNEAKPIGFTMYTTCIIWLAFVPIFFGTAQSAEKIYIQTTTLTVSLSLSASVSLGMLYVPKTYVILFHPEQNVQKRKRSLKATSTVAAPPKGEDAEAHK
Reported EC50 values for a set of compounds
Supply the numeric figure in µM, leaving out any unit text.

// known answers, use as guide
N[C@@H](CCP(=O)(O)C(O)c1ccc(OCCO)cc1)C(=O)O (stereo partly shown) [Derivative 13] : 54
N[C@@H](CCP(=O)(O)C(O)c1ccc(OCC(=O)O)cc1)C(=O)O (stereo partly shown) [Derivative 2] : 4.2
N[C@@H](CCP(=O)(O)C(O)c1ccc(/C=C/C(=O)O)cc1)C(=O)O (stereo partly shown) [Derivative 11] : 3.8
N[C@@H](CCP(=O)(O)C(O)c1cc(F)c(OCC(=O)O)c(F)c1)C(=O)O (stereo in doubt) [Derivative 28] : 2.5

Any idea what its EC50 is? The compound is N[C@@H](CCP(=O)(O)Cc1ccc(OCC(=O)O)cc1)C(=O)O [Derivative 30]
13

Follow-up item: Cc1cc(C(O)P(=O)(O)CC[C@H](N)C(=O)O)cc(C)c1OCC(=O)O (stereo partly shown) [Derivative 10]
18.4

How about this compound: COc1cc(C(O)P(=O)(O)CC[C@H](N)C(=O)O)ccc1OCC(=O)O (stereo partly shown) [Derivative 3]
4.7

---

Reported EC50 is given for each of the following compounds.
target: mGlu4 (Homo sapiens (Human), UniProt Q14833); test: Agonist activity on mGlu4 in transfected HEK293 cells, intracellular calcium release (Fluo4-AM); format: cell-based; conditions: transfected cells, calcium release; read-out: mGlu4 EC50 μM (n)
Sequence (Q14833 33-912): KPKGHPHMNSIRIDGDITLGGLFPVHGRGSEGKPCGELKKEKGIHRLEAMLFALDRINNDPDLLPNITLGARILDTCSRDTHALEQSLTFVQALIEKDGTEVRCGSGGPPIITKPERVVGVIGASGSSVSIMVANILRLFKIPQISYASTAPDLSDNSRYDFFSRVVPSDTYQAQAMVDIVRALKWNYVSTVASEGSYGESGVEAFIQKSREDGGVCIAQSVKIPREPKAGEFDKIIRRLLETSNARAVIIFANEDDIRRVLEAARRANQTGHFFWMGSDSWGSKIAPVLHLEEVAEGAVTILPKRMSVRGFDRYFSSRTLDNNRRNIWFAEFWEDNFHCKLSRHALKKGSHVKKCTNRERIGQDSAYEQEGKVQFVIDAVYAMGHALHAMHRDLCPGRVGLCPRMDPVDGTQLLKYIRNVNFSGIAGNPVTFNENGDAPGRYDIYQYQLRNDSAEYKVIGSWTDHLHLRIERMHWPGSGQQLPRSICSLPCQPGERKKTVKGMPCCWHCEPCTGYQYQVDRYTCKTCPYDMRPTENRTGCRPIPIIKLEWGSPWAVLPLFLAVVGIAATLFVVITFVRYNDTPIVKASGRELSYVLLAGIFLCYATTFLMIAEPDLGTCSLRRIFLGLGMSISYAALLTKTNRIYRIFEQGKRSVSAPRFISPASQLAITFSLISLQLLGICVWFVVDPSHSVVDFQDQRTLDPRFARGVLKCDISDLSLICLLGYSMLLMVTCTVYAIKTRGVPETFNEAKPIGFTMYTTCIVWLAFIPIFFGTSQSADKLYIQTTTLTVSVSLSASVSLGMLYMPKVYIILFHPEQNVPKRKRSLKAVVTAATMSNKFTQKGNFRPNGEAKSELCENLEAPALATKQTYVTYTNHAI
# output: bare number, implied unit µM

Illustrative cases are given below, each with its answer.
N[C@@H](CCP(=O)(O)Cc1ccc(OCC(=O)O)cc1)C(=O)O [Derivative 30] : 1
CC(Oc1ccc(C(O)P(=O)(O)CC[C@H](N)C(=O)O)cc1)C(=O)O (stereo in doubt) [Derivative 29] : 0.95
N[C@@H](CCP(=O)(O)C(O)c1ccc(OCP(=O)(O)O)cc1)C(=O)O (stereo partly shown) [Derivative 14] : 0.37

GET /values?readout=EC50&item= N[C@@H](CCP(=O)(O)C(O)c1ccc(OCC(=O)O)c([N+](=O)[O-])c1)C(=O)O (stereo in doubt) [Derivative 24]
0.26

Further, for N[C@@H](CCP(=O)(O)Cc1ccc(OCC(=O)O)c(C(F)(F)F)c1)C(=O)O (stereo in doubt) [Derivative 33] ?
62.5

Attribution: patent US9212196B2
